system_tested: human MRG15 MRG domain (residues 155-323) (human, UniProt Q9UBU8-2 155-323)
Sequence (Q9UBU8 194-362): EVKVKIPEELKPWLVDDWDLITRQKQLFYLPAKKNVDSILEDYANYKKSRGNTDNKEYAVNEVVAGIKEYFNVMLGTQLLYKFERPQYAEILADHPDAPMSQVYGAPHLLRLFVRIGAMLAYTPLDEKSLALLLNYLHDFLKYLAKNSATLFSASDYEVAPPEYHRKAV
experiment_summary: ITC
pKd: −log10 of the molar value.
measurement_kind: pKd

Q. Could you share which pKd value was measured for human PALB2 MBD (residues 579-629) (domain or fragment, UniProt Q86YC2 579-629, looked up) AYLSLDDDAFTAPFHRDGMLSLKQLLSFLSITDFQLPDEDFGPLKLEKVKS ?
A. ~7.70

Q. Report pKd for human MRGBP MRG-binding domain (residues 69-119) (domain or fragment, UniProt Q9NV56 69-119, looked up) GRQVPSKVIWDHLSTMYDMQALHESEILPFPNPERNFVLPEEIIQEVREGK please.
A. ~7.22

Numbers sourced from paper PMC4456287.
